Where do these numbers come from? They come from patent US10800770B1.

study.target: ERα (Homo sapiens, UniProt P03372)
Construct: endogenous in cells; host or cells: T47D
measurement.description: ERα degradative activity in T47D cells (Western blot, 6 hours after administration)
Type: cell-based
condition.notes: T47D cell line, ERα degradation
Reported DC50 values for the following molecules.

input: Can you look up the measured DC50 of O=C1CCC(N2C(=O)c3ccc(N4CCN(CC5CCN(c6ccc(C7c8ccc(O)cc8OC[C@@H]7c7ccccc7)cc6)CC5)CC4)cc3C2=O)C(=O)N1 (stereo in doubt) for me?
output: > 10 nM

input: Next molecule: O=C1CC[C@H](N2Cc3cc(N4CCN(CC5CCN(c6ccc([C@H]7c8ccc(O)cc8OC[C@H]7c7ccccc7)cc6F)CC5)CC4)ccc3C2=O)C(=O)N1
output: > 100 nM

input: Another molecule to look at: O=C1CC[C@H](N2Cc3cc(N4CCN(CC5CCN(c6ccc([C@H]7c8ccc(O)cc8OC[C@H]7c7ccccc7)cc6)CC5)CC4)ccc3C2=O)C(=O)N1
output: > 100 nM
